Source listed as PubChem BioAssay AID2060894.

Tested on: K12877-001-R-J1-PDC complex spheroid viability;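 further: spheroids exposed to agents for one week before readout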
Assay: Anticancer human tumor K12877-001-R-J1-PDC patient-derived lung adenocarcinoma cell line growth inhibition [RAS]
Settings: curve of first compound; second compound 0.00949 µM
endpoint: IC50 (µM)
Dear colleague, please return just the value in µM, with no unit written.

Query block: Bench note: what IC50 did Cc1nc(N2CCC3(CC2)COC(C)C3N)c(CO)nc1Sc1ccnc(N)c1Cl (configuration not stated) + CCn1c(-c2cccnc2C(C)OC)c2c3cc(ccc31)N1CCOC(CC(NC(=O)C(C(C)C)N(C)C(=O)C3(F)CCN(C(=O)C#CC(C)(C)N(C)C)CC3)C(=O)N3CCCC(N3)C(=O)OCC(C)(C)C2)C1 show?
Result block: 2.63
